Taken from patent US20120238615A1.

Provide the reported EC50 of each item.
target: alpha-2C (Homo sapiens); construct: expressed in transfected cells; experiment: FLIPR calcium assay for alpha adrenergic activity; type: cell-based; settings: cells expressing alpha-2C and G-protein (Gqi5 or G16), fluo-4 calcium signal, agonist, read-out: Potency (nM) Alpha 2C (EC50)
Answers are plain numbers, in nM.

Worked cases, EC50 given:
# CHEMICAL SMILES, SYSTEM UNDER TEST, REPORTED
data = [
    ("Cc1c(Cl)cccc1NC1=NCCC1", "alpha-2C (Homo sapiens)", 71),
    ("COc1c(Cl)cccc1NC1=NCCC1", "alpha-2C (Homo sapiens)", 975),
    ("COc1cccc(NC2=NCCC2)c1C", "alpha-2C (Homo sapiens)", 186),
    ("Cc1cccc(NC2=NCCC2)c1Br", "alpha-2C (Homo sapiens)", 663),
    ("COc1cccc(NC2=NCCC2)c1Br", "alpha-2C (Homo sapiens)", 32),
    ("COc1c(C)cccc1NC1=NCCC1", "alpha-2C (Homo sapiens)", 243),
    ("Cc1c(F)cccc1NC1=NCCC1", "alpha-2C (Homo sapiens)", 756),
    ("Cc1cccc(C)c1NC1=NCCC1", "alpha-2C (Homo sapiens)", 348),
]

List reported EC50 for each of these molecules:
1. Cc1c(Br)cccc1NC1=NCCC1
2. Clc1cccc(Cl)c1NC1=NCCC1
3. Clc1ccccc1NC1=NCCC1
4. Cc1ccccc1NC1=NCCC1
5. Fc1c(Cl)cccc1NC1=NCCC1

288
44
709
743
26

----------
Biological target: alpha-2C (Homo sapiens)
Construct: expressed in transfected cells
Sequence (P18825 1-462): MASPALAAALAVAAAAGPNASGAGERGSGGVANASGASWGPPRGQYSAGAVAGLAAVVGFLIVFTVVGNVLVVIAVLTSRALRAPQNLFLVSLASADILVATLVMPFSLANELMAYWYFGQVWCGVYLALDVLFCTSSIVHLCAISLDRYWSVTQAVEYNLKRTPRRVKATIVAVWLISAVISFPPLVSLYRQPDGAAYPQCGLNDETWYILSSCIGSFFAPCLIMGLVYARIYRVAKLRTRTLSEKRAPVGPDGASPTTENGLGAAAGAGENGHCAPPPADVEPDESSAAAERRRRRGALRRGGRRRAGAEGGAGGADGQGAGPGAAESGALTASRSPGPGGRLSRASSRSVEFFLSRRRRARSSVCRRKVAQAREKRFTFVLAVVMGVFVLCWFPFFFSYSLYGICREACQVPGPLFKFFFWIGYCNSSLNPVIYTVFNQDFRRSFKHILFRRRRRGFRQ
Assay: FLIPR calcium assay for alpha adrenergic activity
Assay type: cell-based
Details: cells expressing alpha-2C and G-protein (Gqi5 or G16), fluo-4 calcium signal, agonist, read-out: Potency (nM) Alpha 2C (EC50)
MEASURED QUANTITY: EC50
Record the result as a number with its unit.

Take a look at these entries with their results.
# CHEMICAL SMILES, SYSTEM UNDER TEST, MEASURED QUANTITY, REPORTED
records = [
    ("FC(F)(F)c1ccccc1NC1=NCCC1", "alpha-2C (Homo sapiens)", "EC50", "796 nM"),
    ("Cc1cccc(NC2=NCCC2)c1Cl", "alpha-2C (Homo sapiens)", "EC50", "635 nM"),
]

Now let's try a different one.
Would you mind telling me what EC50 value was observed for `Cc1cccc(NC2=NCCC2)c1C` ?
118 nM
